The values you see were collected from the supplement of paper PMC9112550.

# Tested on: Escherichia coli TOP10
# procedure.summary: shrunken log2 fold change of peptide-encoding DNA abundance (4.5 h post-induction vs induction); higher = less antimicrobial activity (less host growth inhibition)
# condition.set: time post-induction: 4.5 h; library: site-saturation at positions 5, 18, 19, 20
Class assignment keyed on shrunken log2 fold change, ranges A: < -0.1; B: ≥ -0.1 and < -0.008; C: ≥ -0.008

QUERY: Class label required: RRIRARPPRLPRPRPRPQGRPRP
RESULT: C

###

Items are presented alongside their recorded shrunken log2 fold change.
# Tested on: Escherichia coli TOP10
# procedure.summary: shrunken log2 fold change of peptide-encoding DNA abundance (4.5 h post-induction vs induction); higher = less antimicrobial activity (less host growth inhibition)
# condition.set: time post-induction: 4.5 h; library: site-saturation at positions 5, 18, 19, 20
Answer with a number only.

>>> readout_number("RRIRMRPPRLPRPRPRPYHSPRP")
-0.0421
>>> readout_number("RRIRNRPPRLPRPRPRPTGTPRP")
0.0526
>>> readout_number("RRIRARPPRLPRPRPRPLMVPRP")
0.0926
>>> readout_number("RRIRHRPPRLPRPRPRPLDLPRP")
0.441
>>> readout_number("RRIRVRPPRLPRPRPRPDTRPRP")
-0.129

QUERY: Value wanted: shrunken log2 fold change (Escherichia coli TOP10) of entry RRIRWRPPRLPRPRPRPTNYPRP
RESULT: -0.347

QUERY: Value wanted: shrunken log2 fold change (Escherichia coli TOP10) of entry RRIRIRPPRLPRPRPRPDHAPRP
RESULT: -0.0379

###

# Tested on: Escherichia coli TOP10
# procedure.summary: shrunken log2 fold change of peptide-encoding DNA abundance (4.5 h post-induction vs induction); higher = less antimicrobial activity (less host growth inhibition)
# condition.set: time post-induction: 4.5 h; library: site-saturation at positions 5, 18, 19, 20
Class assignment keyed on shrunken log2 fold change, ranges Low = under -0.03, Mid = from -0.03 up to 0.2, High = 0.2 and over

See these solved cases before continuing.
>>> assigned_label("RRIRLRPPRLPRPRPRPWIYPRP")
"Low"
>>> assigned_label("RRIRVRPPRLPRPRPRPMFEPRP")
"Mid"
>>> assigned_label("RRIRWRPPRLPRPRPRPGFRPRP")
"High"
>>> assigned_label("RRIRHRPPRLPRPRPRPNWIPRP")
"Low"
>>> assigned_label("RRIRLRPPRLPRPRPRPHPVPRP")
"Mid"

QUERY: Class label required: RRIRIRPPRLPRPRPRPHQYPRP
RESULT: Low

QUERY: Class label required: RRIRVRPPRLPRPRPRPTWNPRP
RESULT: Mid

QUERY: Class label required: RRIRWRPPRLPRPRPRPPSAPRP
RESULT: High

QUERY: Class label required: RRIRDRPPRLPRPRPRPVRYPRP
RESULT: Mid

QUERY: Class label required: RRIRVRPPRLPRPRPRPSWKPRP
RESULT: Low

QUERY: Class label required: RRIRTRPPRLPRPRPRPCFFPRP
RESULT: Low

###

# Test system: Escherichia coli TOP10
# procedure.summary: shrunken log2 fold change of peptide-encoding DNA abundance (4.5 h post-induction vs induction); higher = less antimicrobial activity (less host growth inhibition)
# condition.set: time post-induction: 4.5 h; library: site-saturation at positions 5, 18, 19, 20
reported.endpoint: shrunken log2 fold change
Answer with a number only.

>>> readout_number("RRIRQRPPRLPRPRPRPQSHPRP")
-0.309
>>> readout_number("RRIRPRPPRLPRPRPRPKGFPRP")
0.0275

QUERY: Item RRIRERPPRLPRPRPRPEINPRP has what recorded shrunken log2 fold change?
RESULT: -0.2

QUERY: Item RRIRSRPPRLPRPRPRPMNPPRP has what recorded shrunken log2 fold change?
RESULT: -0.0648

###

# Test system: Escherichia coli TOP10
# procedure.summary: shrunken log2 fold change of peptide-encoding DNA abundance (4.5 h post-induction vs induction); higher = less antimicrobial activity (less host growth inhibition)
# condition.set: time post-induction: 4.5 h; library: site-saturation at positions 5, 18, 19, 20
reported.endpoint: shrunken log2 fold change
Answer with a number only.

Observe how each entry below is paired with its result.
>>> readout_number("RRIRKRPPRLPRPRPRPVWYPRP")
0.0528
>>> readout_number("RRIRDRPPRLPRPRPRPNNFPRP")
-0.418
>>> readout_number("RRIRQRPPRLPRPRPRPSSQPRP")
-0.395
>>> readout_number("RRIRIRPPRLPRPRPRPLCCPRP")
-0.317
>>> readout_number("RRIRVRPPRLPRPRPRPWLVPRP")
0.128
>>> readout_number("RRIRARPPRLPRPRPRPVCSPRP")
0.665

QUERY: Item RRIRWRPPRLPRPRPRPMWIPRP has what recorded shrunken log2 fold change?
RESULT: 0.135

QUERY: Item RRIRMRPPRLPRPRPRPYFCPRP has what recorded shrunken log2 fold change?
RESULT: -0.352

###

# System: Escherichia coli TOP10
# procedure.summary: shrunken log2 fold change of peptide-encoding DNA abundance (4.5 h post-induction vs induction); higher = less antimicrobial activity (less host growth inhibition)
# condition.set: time post-induction: 4.5 h; library: site-saturation at positions 5, 18, 19, 20
Entry flag: condition met if shrunken log2 fold change reaches -0.07; condition not met if it does not.

>>> assigned_label("RRIRGRPPRLPRPRPRPHQKPRP")
"condition met"
>>> assigned_label("RRIRIRPPRLPRPRPRPQQFPRP")
"condition not met"

QUERY: hey, is shrunken log2 fold change for this one >= -0.07? RRIRMRPPRLPRPRPRPNSQPRP
RESULT: condition not met

QUERY: hey, is shrunken log2 fold change for this one >= -0.07? RRIRERPPRLPRPRPRPCWCPRP
RESULT: condition met

QUERY: hey, is shrunken log2 fold change for this one >= -0.07? RRIRARPPRLPRPRPRPCCYPRP
RESULT: condition met

QUERY: hey, is shrunken log2 fold change for this one >= -0.07? RRIRSRPPRLPRPRPRPANMPRP
RESULT: condition not met

QUERY: hey, is shrunken log2 fold change for this one >= -0.07? RRIRQRPPRLPRPRPRPQRLPRP
RESULT: condition met

QUERY: hey, is shrunken log2 fold change for this one >= -0.07? RRIRIRPPRLPRPRPRPNGDPRP
RESULT: condition met

###

# Test system: Escherichia coli TOP10
# procedure.summary: shrunken log2 fold change of peptide-encoding DNA abundance (4.5 h post-induction vs induction); higher = less antimicrobial activity (less host growth inhibition)
# condition.set: time post-induction: 4.5 h; library: site-saturation at positions 5, 18, 19, 20
reported.endpoint: shrunken log2 fold change
Answer with a number only.

QUERY: Item RRIRSRPPRLPRPRPRPDYRPRP has what recorded shrunken log2 fold change?
RESULT: -0.0371

QUERY: Item RRIRARPPRLPRPRPRPKMRPRP has what recorded shrunken log2 fold change?
RESULT: 1.64

QUERY: Item RRIRMRPPRLPRPRPRPTLEPRP has what recorded shrunken log2 fold change?
RESULT: 0.259

QUERY: Item RRIRFRPPRLPRPRPRPSIAPRP has what recorded shrunken log2 fold change?
RESULT: -0.271

QUERY: Item RRIRPRPPRLPRPRPRPVRGPRP has what recorded shrunken log2 fold change?
RESULT: 0.898

QUERY: Item RRIRPRPPRLPRPRPRPDQCPRP has what recorded shrunken log2 fold change?
RESULT: 0.139

QUERY: Item RRIRNRPPRLPRPRPRPAENPRP has what recorded shrunken log2 fold change?
RESULT: -0.0634

QUERY: Item RRIRARPPRLPRPRPRPPKLPRP has what recorded shrunken log2 fold change?
RESULT: 0.683

QUERY: Item RRIRPRPPRLPRPRPRPENQPRP has what recorded shrunken log2 fold change?
RESULT: 0.0738

QUERY: Item RRIRNRPPRLPRPRPRPEMSPRP has what recorded shrunken log2 fold change?
RESULT: -0.0389

QUERY: Item RRIRFRPPRLPRPRPRPLPNPRP has what recorded shrunken log2 fold change?
RESULT: 0.184

QUERY: Item RRIRKRPPRLPRPRPRPMSQPRP has what recorded shrunken log2 fold change?
RESULT: -0.0623

QUERY: Item RRIRCRPPRLPRPRPRPIAIPRP has what recorded shrunken log2 fold change?
RESULT: -0.443

QUERY: Item RRIRLRPPRLPRPRPRPNTKPRP has what recorded shrunken log2 fold change?
RESULT: -0.543

QUERY: Item RRIRARPPRLPRPRPRPFPYPRP has what recorded shrunken log2 fold change?
RESULT: -0.164

###

# System: Escherichia coli TOP10;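 further: peptides expressed intracellularly from a pBAD plasmid library in pooled LB shake-flask culture, induced with 0.3% L-arabinose, DNA abundance read by NGS, three biological replicates, DESeq2 with apeglm shrinkage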
# procedure.summary: shrunken log2 fold change of peptide-encoding DNA abundance (4.5 h post-induction vs induction); higher = less antimicrobial activity (less host growth inhibition)
# condition.set: time post-induction: 4.5 h; library: site-saturation at positions 5, 18, 19, 20
Class assignment keyed on shrunken log2 fold change, ranges interval 1 (below -0.1), interval 2 (-0.1 to below 0.2), interval 3 (0.2 or more)

>>> assigned_label("RRIRLRPPRLPRPRPRPDPLPRP")
"interval 2"
>>> assigned_label("RRIRFRPPRLPRPRPRPRARPRP")
"interval 3"

QUERY: Class label required: RRIRSRPPRLPRPRPRPRCKPRP
RESULT: interval 1

QUERY: Class label required: RRIRLRPPRLPRPRPRPIMDPRP
RESULT: interval 2

QUERY: Class label required: RRIRRRPPRLPRPRPRPCATPRP
RESULT: interval 3

QUERY: Class label required: RRIRTRPPRLPRPRPRPNKGPRP
RESULT: interval 1

QUERY: Class label required: RRIRLRPPRLPRPRPRPQNRPRP
RESULT: interval 1

QUERY: Class label required: RRIRGRPPRLPRPRPRPDKEPRP
RESULT: interval 3
